Provide the recorded scaled log2 fold change for the entries that follow.
B1: library; numbered along this chain (parent)
chain: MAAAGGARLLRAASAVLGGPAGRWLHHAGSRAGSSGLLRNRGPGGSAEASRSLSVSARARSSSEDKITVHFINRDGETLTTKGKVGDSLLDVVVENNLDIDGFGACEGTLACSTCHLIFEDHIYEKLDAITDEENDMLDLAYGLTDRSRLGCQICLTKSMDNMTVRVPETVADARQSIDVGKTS

# Variants of: B1
# MEASUREMENT_NOTES: scaled log2 fold change in cell abundance, elesclomol vs control (0 = silent mean, 1 = nonsense mean) (scaled log2 ratio); higher = higher viability under elesclomol (loss of FDX1 cuproptosis function);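 further: variant abundance is its share of total variant reads in each endpoint sample, from next-generation sequencing of the integrated ORF PCR-amplified out of genomic DNA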
# CONDITIONS_USED: with HEK293T FDX1 KO; elesclomol 40 nM; glucose 10 mM; 11 days
Please reply with the value in numeric form only.

# lookup: scaled log2 fold change of E120V
-0.849

Quick one: scaled log2 fold change for D87C ?
-0.252

Quick one: scaled log2 fold change of H122V ?
-0.437

So what does the record say about scaled log2 fold change for N96F ?
-0.464

Which scaled log2 fold change value is on record for A172C ?
-0.168

Bench note: what scaled log2 fold change did N40T show?
-0.708

So what does the record say about scaled log2 fold change for I67W ?
-0.0492

Could you share which scaled log2 fold change value was measured for I130N ?
0.234

For the variant shown here, C152V , give the reported scaled log2 fold change.
1.12

Which scaled log2 fold change is listed for T81N ?
0.885

For D65L , what is its reported scaled log2 fold change?
-0.119

Any idea what its scaled log2 fold change is? The variant is T164P
-0.0295

Consider the variant shown here: D99G What is its recorded scaled log2 fold change?
-0.777

Which scaled log2 fold change is reported for this variant? R58V
1.47

So what's the measured scaled log2 fold change for this one? M163S
0.99

GET /values?readout=scaled log2 fold change&item= N162K
0.386

Entry L140A has what scaled log2 fold change?
-1.25

Consider the variant S148E and give its measured scaled log2 fold change.
1.23

// lookup scaled log2 fold change for N135E
0.0823

Dear colleague, I am looking for the recorded scaled log2 fold change of the following variant: P168N
-0.31

Using the record for S177T , report its scaled log2 fold change.
-0.492

What scaled log2 fold change value was documented for this variant, G86T ?
-0.144

Quick one: scaled log2 fold change of I100T ?
-0.631

Can you share its scaled log2 fold change? I mean this variant: V69R
0.458

Which scaled log2 fold change reading was recorded for the variant T68N ?
-0.202

Any idea what scaled log2 fold change was measured for L90F ?
-0.179

Query: scaled log2 fold change; subject: C115N
1.34

Dear colleague, I am looking for the recorded scaled log2 fold change of the following variant: L127A
1.31

Consider the variant shown here: S56H What is its recorded scaled log2 fold change?
0.979

Request the reported scaled log2 fold change associated with A7W
0.227

Quick one: scaled log2 fold change for A21G ?
-0.283

Look up scaled log2 fold change: L10K
-0.14

Which value of scaled log2 fold change has been reported for V165Q in the records?
1.21

# get_value(readout='scaled log2 fold change', item= A12E )
0.751

Report scaled log2 fold change for I123F please.
0.312

What value of scaled log2 fold change has been reported for the following variant? G76F
-0.273

Give the measured scaled log2 fold change of T170G .
-0.241

Item I178Q has what recorded scaled log2 fold change?
0.28

Quick check: scaled log2 fold change of D173I ?
0.102

Name the recorded scaled log2 fold change for F103H .
1.17

Could you share which scaled log2 fold change value was measured for N96I ?
0.221

Name the recorded scaled log2 fold change for C155Y .
-0.939

Which scaled log2 fold change is reported for this variant? I100E
0.099

// scaled log2 fold change lookup, key: G18V
-0.0846

Reported scaled log2 fold change, variant G86V : ____
0.478

I'd like to know its scaled log2 fold change. The variant in question is R166L
0.328

For C155F , what is its reported scaled log2 fold change?
-0.0932

Fill blank: measured scaled log2 fold change of the variant I118M is ____.
0.694

Data request, read-out scaled log2 fold change, for N162M
-0.13

So what's the measured scaled log2 fold change for this one? I130G
-0.433

Consider the variant I178A and give its measured scaled log2 fold change.
0.476

For the variant shown here, V167D , give the reported scaled log2 fold change.
0.995

Report scaled log2 fold change for R175W please.
-0.0023

Give its scaled log2 fold change value. Item: A47G
0.78

Reported scaled log2 fold change for A7N : what is it?
0.0857

# input variant: K126P ; wanted: its scaled log2 fold change
0.147

Quick one: scaled log2 fold change for E48L ?
1.05

Consider the variant L110N and give its measured scaled log2 fold change.
-0.0165

For R11Y , what is its reported scaled log2 fold change?
0.793

Could you tell me which scaled log2 fold change is on file for K158V ?
-0.343

If you can, please state the reported scaled log2 fold change value of T78G .
0.179

Data request, read-out scaled log2 fold change, for V69D
1.26

Please look up its scaled log2 fold change: S148R
0.333

Value lookup for scaled log2 fold change; key = Q176T
-0.279

Consider the variant T145D and give its measured scaled log2 fold change.
-0.25

Given G143F , state its recorded scaled log2 fold change.
0.343

# input variant: G19L ; wanted: its scaled log2 fold change
0.0638

Form field: reported scaled log2 fold change of S113F
0.717

Field request: scaled log2 fold change | item: S62D
1.05

Which measured scaled log2 fold change value corresponds to G36S ?
-0.0207

Could you tell me which scaled log2 fold change is on file for S113A ?
-0.251

Please report the recorded scaled log2 fold change for R11F .
-0.474

Which scaled log2 fold change reading was recorded for the variant F71W ?
-0.726

What does the data say about its scaled log2 fold change? Entry: L90E
0.205

Any idea what scaled log2 fold change was measured for A4D ?
-0.0733

What measured scaled log2 fold change goes with S113V ?
-0.434

Fill in the blank: the reported scaled log2 fold change of S34R is ____.
0.662

Given the variant R74A , what is its reported scaled log2 fold change?
-0.8

Any idea what its scaled log2 fold change is? The variant is L144H
-0.335

Look up scaled log2 fold change: M137V
-0.154

Entry under review: L98T . Reported scaled log2 fold change?
0.331

Looking for the measured scaled log2 fold change of A3S , can you help?
-0.0887

Tell me the measured scaled log2 fold change of S177F , please.
-0.0862

Dear colleague, I am looking for the recorded scaled log2 fold change of the following variant: G22S
1.21

Look up scaled log2 fold change: Q153P
0.923

Any idea what its scaled log2 fold change is? The variant is D146K
-0.151

Which scaled log2 fold change is reported for this variant? A21N
-0.618

Bench note: what scaled log2 fold change did L156P show?
0.446

Entry under review: D146Y . Reported scaled log2 fold change?
0.0545

Entry C112I has what scaled log2 fold change?
1.33

Given L37E , state its recorded scaled log2 fold change.
-0.121
